# TARGET_OR_TEST_SYSTEM: ROCKα/ROCKII (Homo sapiens)
# Construct: purchased Upstate Biotechnology 14-451
# TEST_NAME: ROCK inhibition, Method 2 fluorescence polarization (FP) assay, ROCK IMAP Kit
# Type: biochemical
# CONDITION_LABEL: 10 μM ATP, read-out: IC50 Meth. 2
pIC50: −log10 of the molar value.
Hi there, I'd appreciate the recorded pIC50 for every entry that follows.

Enquiry: Which pIC50 is listed for Cc1ccc(OC(=O)c2cccc(-c3cc(C(=O)Nc4ccncc4)ccc3C(C)N)c2)cc1 (centres unmarked) [Compound 73] ?
Return: > 7.00

Enquiry: Follow-up item: CC(N)c1ccc(C(=O)Nc2ccncc2)cc1-c1cccc(OCCCSC2CCOC2=O)c1 (centres unmarked) [Compound 131]
Return: 6.00 to 7.00

Enquiry: Follow-up item: CC(N)c1ccc(C(=O)Nc2ccncc2)cc1-c1cccc(C(=O)OCC(Cl)(Cl)Cl)c1 (centres unmarked) [Compound 64]
Return: > 7.00

Enquiry: Follow-up item: CCCCCCCCOC(=O)c1cccc(-c2cc(C(=O)Nc3ccncc3)ccc2C(C)N)c1 (centres unmarked) [Compound 19]
Return: 6.00 to 7.00

Enquiry: Follow-up item: CCCOC(=O)CCc1cccc(-c2cc(C(=O)Nc3ccncc3)ccc2C(C)N)c1 (centres unmarked) [Compound 166]
Return: 6.00 to 7.00

Enquiry: Follow-up item: CC(N)c1ccc(C(=O)Nc2ccncc2)cc1-c1cccc(C(=O)OCc2ccc(Br)cc2)c1 (centres unmarked) [Compound 84]
Return: 6.00 to 7.00

Enquiry: Follow-up item: COC(=O)c1cccc(-c2cc(C(=O)Nc3ccncc3F)ccc2C(C)N)c1 (centres unmarked) [Compound 5]
Return: > 7.00

Enquiry: Follow-up item: C=CCCCCCCCCOC(=O)c1cccc(-c2cc(C(=O)Nc3ccncc3)ccc2C(C)N)c1 (centres unmarked) [Compound 25]
Return: 6.00 to 7.00

====

Hi there, I'd appreciate the recorded pIC50 for every entry that follows.
# TARGET_OR_TEST_SYSTEM: ROCKα/ROCKII (Homo sapiens, UniProt O75116)
# Construct: purchased Upstate Biotechnology 14-451
# Sequence (O75116 whole entry): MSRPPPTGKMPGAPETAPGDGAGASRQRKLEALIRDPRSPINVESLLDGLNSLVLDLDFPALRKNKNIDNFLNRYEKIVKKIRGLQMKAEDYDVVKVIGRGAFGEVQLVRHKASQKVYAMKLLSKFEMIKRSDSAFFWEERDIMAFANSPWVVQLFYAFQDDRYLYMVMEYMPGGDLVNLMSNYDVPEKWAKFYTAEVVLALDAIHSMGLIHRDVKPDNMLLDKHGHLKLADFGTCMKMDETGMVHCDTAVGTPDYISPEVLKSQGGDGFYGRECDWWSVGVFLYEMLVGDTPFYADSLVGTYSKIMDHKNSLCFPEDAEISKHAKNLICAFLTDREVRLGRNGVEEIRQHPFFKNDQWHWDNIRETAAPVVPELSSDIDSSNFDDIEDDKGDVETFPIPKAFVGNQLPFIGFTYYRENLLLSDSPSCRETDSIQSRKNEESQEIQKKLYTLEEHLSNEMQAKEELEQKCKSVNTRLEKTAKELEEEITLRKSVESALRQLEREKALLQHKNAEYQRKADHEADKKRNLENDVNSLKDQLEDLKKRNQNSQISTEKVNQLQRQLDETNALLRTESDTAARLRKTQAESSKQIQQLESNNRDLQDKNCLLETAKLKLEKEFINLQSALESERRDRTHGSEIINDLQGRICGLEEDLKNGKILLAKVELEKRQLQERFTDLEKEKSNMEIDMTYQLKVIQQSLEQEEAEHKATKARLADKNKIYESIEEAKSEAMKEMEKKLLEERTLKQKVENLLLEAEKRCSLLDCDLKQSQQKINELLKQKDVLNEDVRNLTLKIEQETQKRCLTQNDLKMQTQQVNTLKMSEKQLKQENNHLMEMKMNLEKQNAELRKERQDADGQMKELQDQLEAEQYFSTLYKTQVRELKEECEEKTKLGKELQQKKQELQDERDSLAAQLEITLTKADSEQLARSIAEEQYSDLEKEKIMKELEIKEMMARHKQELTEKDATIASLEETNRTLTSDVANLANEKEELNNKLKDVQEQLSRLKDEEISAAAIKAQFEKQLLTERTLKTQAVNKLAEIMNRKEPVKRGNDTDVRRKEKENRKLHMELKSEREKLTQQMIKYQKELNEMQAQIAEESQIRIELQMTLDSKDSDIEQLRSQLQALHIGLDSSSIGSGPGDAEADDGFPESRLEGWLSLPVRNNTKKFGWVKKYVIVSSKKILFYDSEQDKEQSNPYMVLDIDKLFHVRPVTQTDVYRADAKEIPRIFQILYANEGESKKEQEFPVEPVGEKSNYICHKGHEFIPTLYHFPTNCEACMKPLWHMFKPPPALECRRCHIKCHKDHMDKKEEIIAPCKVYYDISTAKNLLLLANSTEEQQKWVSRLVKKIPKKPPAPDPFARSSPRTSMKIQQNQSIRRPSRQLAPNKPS
# TEST_NAME: ROCK inhibition, Method 2 fluorescence polarization (FP) assay, ROCK IMAP Kit
# Type: biochemical
# CONDITION_LABEL: 10 μM ATP, read-out: IC50 Meth. 2
pIC50: −log10 of the molar value.

Enquiry: Which pIC50 is listed for CCCOC(=O)c1cccc(-c2cc(C(=O)Nc3ccncc3F)ccc2CN)c1 ?
Return: 6.00 to 7.00

Enquiry: Follow-up item: CC(N)c1ccc(C(=O)Nc2ccncc2)cc1-c1cccc(C(=O)Oc2ccc3c(c2)OC(=O)CC3)c1 (centres unmarked)
Return: > 7.00

Enquiry: Follow-up item: CC(N)c1ccc(C(=O)Nc2ccncc2F)cc1-c1cccc(C(=O)OCCF)c1 (centres unmarked)
Return: 6.00 to 7.00

Enquiry: Follow-up item: COc1cc(OC(=O)c2cccc(-c3cc(C(=O)Nc4ccncc4)ccc3C(C)N)c2)cc(OC)c1OC (centres unmarked)
Return: 6.00 to 7.00

Enquiry: Follow-up item: CCOC(=O)CCNC(=O)c1cccc(-c2cc(C(=O)Nc3ccncc3)ccc2C(C)N)c1 (centres unmarked)
Return: > 7.00

Enquiry: Follow-up item: CC(N)c1ccc(C(=O)Nc2ccncc2F)cc1-c1cccc(C(=O)Oc2ccccc2)c1 (centres unmarked)
Return: 6.00 to 7.00

Enquiry: Follow-up item: CC(N)c1ccc(C(=O)Nc2ccncc2)cc1-c1cccc(C(=O)OCc2ccccc2[N+](=O)[O-])c1 (centres unmarked)
Return: 6.00 to 7.00

Enquiry: Follow-up item: CC(N)c1ccc(C(=O)Nc2ccncc2)cc1-c1cccc(C(=O)OCC2CCCCO2)c1 (centres unmarked)
Return: > 7.00

Enquiry: Follow-up item: CC(N)c1ccc(C(=O)Nc2ccncc2)cc1-c1cccc(C(=O)OCC(F)(F)F)c1 (centres unmarked)
Return: 6.00 to 7.00

Enquiry: Follow-up item: CCCCCCCCCCOC(=O)c1cccc(-c2cc(C(=O)Nc3ccncc3)ccc2C(C)N)c1 (centres unmarked)
Return: 5.00 to 6.00

Enquiry: Follow-up item: CC(N)c1ccc(C(=O)Nc2ccncc2)cc1-c1cccc(C(=O)Oc2ccc(F)cc2)c1 (centres unmarked)
Return: > 7.00

Enquiry: Follow-up item: COc1ccc(OC(=O)c2cccc(-c3cc(C(=O)Nc4ccncc4)ccc3C(C)N)c2)cc1OC (centres unmarked)
Return: > 7.00

Enquiry: Follow-up item: COC(=O)c1cc(-c2cc(C(=O)Nc3ccncc3)ccc2C(C)N)c[nH]1 (centres unmarked)
Return: 6.00 to 7.00

Enquiry: Follow-up item: CC(N)c1ccc(C(=O)Nc2ccncc2)cc1-c1cccc(C(=O)OCC2COc3ccccc3O2)c1 (centres unmarked)
Return: 6.00 to 7.00

Enquiry: Follow-up item: CC(N)c1ccc(C(=O)Nc2ccncc2)cc1-c1cccc(C(=O)OCC2CCc3ccccc3C2)c1 (centres unmarked)
Return: 6.00 to 7.00

Enquiry: Follow-up item: CC#CCOC(=O)c1cccc(-c2cc(C(=O)Nc3ccncc3)ccc2C(C)N)c1 (centres unmarked)
Return: > 7.00

Enquiry: Follow-up item: CCCOC(=O)c1cccc(-c2cc(C(=O)Nc3ccncc3)ccc2C(C)N)c1 (centres unmarked)
Return: > 7.00

Enquiry: Follow-up item: CC(N)c1ccc(C(=O)Nc2ccncc2)cc1-c1cccc(NC(=O)CC2CC(=O)Oc3ccccc32)c1 (centres unmarked)
Return: > 7.00

Enquiry: Follow-up item: CCCOC(=O)COc1cccc(-c2cc(C(=O)Nc3ccncc3F)ccc2C(C)N)c1 (centres unmarked)
Return: 6.00 to 7.00

Enquiry: Follow-up item: CC(C)OC(=O)c1cccc(-c2cc(C(=O)Nc3ccncc3)ccc2C(C)N)c1 (centres unmarked)
Return: > 7.00

Enquiry: Follow-up item: CC(N)c1ccc(C(=O)Nc2ccncc2)cc1-c1cccc(C(=O)OCc2c(F)c(F)c(F)c(F)c2F)c1 (centres unmarked)
Return: 6.00 to 7.00

Enquiry: Follow-up item: CC(N)c1ccc(C(=O)Nc2ccncc2)cc1-c1cccc(C(=O)OCCCOc2ccccc2)c1 (centres unmarked)
Return: 6.00 to 7.00

Enquiry: Follow-up item: CC(N)c1ccc(C(=O)Nc2ccncc2)cc1-c1cccc(CCC(=O)Oc2ccccc2)c1 (centres unmarked)
Return: > 7.00

Enquiry: Follow-up item: COc1cc(OC(=O)c2cccc(-c3cc(C(=O)Nc4ccncc4F)ccc3C(C)N)c2)cc(OC)c1OC (centres unmarked)
Return: > 7.00

Enquiry: Follow-up item: CC(C)COC(=O)c1cccc(-c2cc(C(=O)Nc3ccncc3)ccc2C(C)N)c1 (centres unmarked)
Return: > 7.00

Enquiry: Follow-up item: CC(N)c1ccc(C(=O)Nc2ccncc2)cc1-c1cccc(OC2CCOC2=O)c1 (centres unmarked)
Return: > 7.00

Enquiry: Follow-up item: COc1cccc(OC)c1OC(=O)c1cccc(-c2cc(C(=O)Nc3ccncc3)ccc2C(C)N)c1 (centres unmarked)
Return: 6.00 to 7.00

Enquiry: Follow-up item: CC(N)c1ccc(C(=O)Nc2ccncc2)cc1-c1cccc(C(=O)OCCCl)c1 (centres unmarked)
Return: > 7.00

Enquiry: Follow-up item: CC(N)c1ccc(C(=O)Nc2ccncc2F)cc1-c1cccc(C(=O)OCCCO)c1 (centres unmarked)
Return: > 7.00

Enquiry: Follow-up item: CC(N)c1ccc(C(=O)Nc2ccncc2)cc1-c1cccc(C(=O)OCCCCCl)c1 (centres unmarked)
Return: > 7.00

Enquiry: Follow-up item: CC(N)c1ccc(C(=O)Nc2ccncc2)cc1-c1cccc(C(=O)SC(C)(C)C)c1 (centres unmarked)
Return: > 7.00

Enquiry: Follow-up item: COc1ccc(OC(=O)c2cccc(-c3cc(C(=O)Nc4ccncc4F)ccc3C(C)N)c2)cc1OC (centres unmarked)
Return: > 7.00

====

# TARGET_OR_TEST_SYSTEM: ROCKα/ROCKII (Homo sapiens, UniProt O75116)
# TEST_NAME: ROCK inhibition, Method 2 fluorescence polarization (FP) assay, ROCK IMAP Kit
# CONDITION_LABEL: 10 μM ATP, read-out: IC50 Meth. 2
pIC50: −log10 of the molar value.
Hi there, I'd appreciate the recorded pIC50 for every entry that follows.

Enquiry: Which pIC50 is listed for CCCCCCCCCCCCOC(=O)c1cccc(-c2cc(C(=O)Nc3ccncc3)ccc2C(C)N)c1 (centres unmarked) ?
Return: 5.00 to 6.00

Enquiry: Follow-up item: CC(N)c1ccc(C(=O)Nc2ccncc2)cc1-c1cccc(C(=O)OCCc2cccs2)c1 (centres unmarked)
Return: 6.00 to 7.00

Enquiry: Follow-up item: COc1cc(OC)cc(OC(=O)c2cccc(-c3cc(C(=O)Nc4ccncc4)ccc3C(C)N)c2)c1 (centres unmarked)
Return: > 7.00

Enquiry: Follow-up item: CC(N)c1ccc(C(=O)Nc2ccncc2F)cc1-c1cccc(C(=O)OCC2CCCO2)c1 (centres unmarked)
Return: > 7.00

Enquiry: Follow-up item: CC(N)c1ccc(C(=O)Nc2ccncc2)cc1-c1cccc(C(=O)OCCc2ccccc2)c1 (centres unmarked)
Return: 6.00 to 7.00

Enquiry: Follow-up item: CC(N)c1ccc(C(=O)Nc2ccncc2)cc1-c1c[nH]c(C(=O)Oc2ccccc2)c1 (centres unmarked)
Return: > 7.00

Enquiry: Follow-up item: CC(N)c1ccc(C(=O)Nc2ccncc2F)cc1-c1cccc(OCC(=O)Oc2ccccc2)c1 (centres unmarked)
Return: 6.00 to 7.00

Enquiry: Follow-up item: CC(N)c1ccc(C(=O)Nc2ccncc2)cc1-c1cccc(C(=O)OCCN2C(=O)c3ccccc3C2=O)c1 (centres unmarked)
Return: 6.00 to 7.00
